Dear all, this message contains Cellular Toxicity Assay MTT LD50 results, target or system SKW3 cells.

• C[C@]1(Cc2ccc([N+](=O)[O-])cc2)NC(=O)N(c2cc(Cl)cc(Cl)c2)C1=O [Example 44] = 63 to 125 µM
• Cc1cccc(C)c1CC1(C)C(=O)N(c2cc(Cl)cc(Cl)c2)C(=O)N1C (centres unmarked) [Example 163] = 200 to 400 µM
• CN1C(=O)N(c2cc(Cl)cc(Cl)c2)C(=O)C1Cc1ccc(Br)cc1 (centres unmarked) [Example 92] = 63 to 125 µM
• O=C1NC(Cc2ccc3ccccc3c2)C(=O)N1c1cc(Cl)cc(Cl)c1 (centres unmarked) [Example 17] = 125 µM
• CN1C(=O)N(c2cc(Cl)cc(Cl)c2)C(=O)[C@@]1(C)Cc1ccc(-c2ccccn2)cc1 [Example 187] = 171 µM

Shifting focus to the compound that follows.
The measured Cellular Toxicity Assay MTT LD50 that COC(=O)c1ccc(CC2(C)C(=O)N(c3cc(Cl)cc(Cl)c3)C(=O)N2C)cc1 (centres unmarked) [Example 140] showed for SKW3 cells is 180 to 360 µM

====

# systemUnderTest: interaction of ICAM-1 with the Leukointegrin CD18/CD11a (LFA-1) (Homo sapiens, UniProt P05107+P20701)
# Construct: endogenous in cells; sICAM-1: made in house, secreted from transfected CHO DUX cells
# Sequence (P20701 26-1170): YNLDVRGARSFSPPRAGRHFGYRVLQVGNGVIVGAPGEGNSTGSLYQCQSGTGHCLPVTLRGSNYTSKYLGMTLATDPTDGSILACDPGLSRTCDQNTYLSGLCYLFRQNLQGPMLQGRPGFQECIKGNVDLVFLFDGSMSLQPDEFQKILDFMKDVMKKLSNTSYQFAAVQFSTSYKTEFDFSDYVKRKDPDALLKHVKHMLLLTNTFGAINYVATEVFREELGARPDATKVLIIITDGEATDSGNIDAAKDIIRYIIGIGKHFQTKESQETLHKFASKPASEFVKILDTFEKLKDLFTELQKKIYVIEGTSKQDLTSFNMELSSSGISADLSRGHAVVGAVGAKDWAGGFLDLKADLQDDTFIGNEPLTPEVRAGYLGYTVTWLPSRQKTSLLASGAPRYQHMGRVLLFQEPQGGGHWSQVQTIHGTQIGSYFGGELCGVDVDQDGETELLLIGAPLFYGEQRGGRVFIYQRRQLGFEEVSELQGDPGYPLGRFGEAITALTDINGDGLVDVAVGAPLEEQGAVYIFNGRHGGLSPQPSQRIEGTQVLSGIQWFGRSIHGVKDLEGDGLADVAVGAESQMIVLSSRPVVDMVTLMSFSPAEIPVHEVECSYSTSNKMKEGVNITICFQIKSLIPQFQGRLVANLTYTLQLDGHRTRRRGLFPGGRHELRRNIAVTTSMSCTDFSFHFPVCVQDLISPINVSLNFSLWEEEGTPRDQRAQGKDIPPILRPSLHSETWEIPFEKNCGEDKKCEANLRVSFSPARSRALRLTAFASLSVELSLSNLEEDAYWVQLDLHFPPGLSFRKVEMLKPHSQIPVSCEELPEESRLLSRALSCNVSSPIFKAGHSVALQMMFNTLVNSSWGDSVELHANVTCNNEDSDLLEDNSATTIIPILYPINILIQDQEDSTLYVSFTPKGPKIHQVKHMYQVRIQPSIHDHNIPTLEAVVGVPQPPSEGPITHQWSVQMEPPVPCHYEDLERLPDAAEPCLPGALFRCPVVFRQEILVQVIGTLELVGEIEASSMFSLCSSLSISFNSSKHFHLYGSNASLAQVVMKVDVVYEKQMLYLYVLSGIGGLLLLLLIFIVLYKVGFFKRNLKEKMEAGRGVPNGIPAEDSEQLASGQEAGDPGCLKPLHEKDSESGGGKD
# Sequence (P05107 23-769): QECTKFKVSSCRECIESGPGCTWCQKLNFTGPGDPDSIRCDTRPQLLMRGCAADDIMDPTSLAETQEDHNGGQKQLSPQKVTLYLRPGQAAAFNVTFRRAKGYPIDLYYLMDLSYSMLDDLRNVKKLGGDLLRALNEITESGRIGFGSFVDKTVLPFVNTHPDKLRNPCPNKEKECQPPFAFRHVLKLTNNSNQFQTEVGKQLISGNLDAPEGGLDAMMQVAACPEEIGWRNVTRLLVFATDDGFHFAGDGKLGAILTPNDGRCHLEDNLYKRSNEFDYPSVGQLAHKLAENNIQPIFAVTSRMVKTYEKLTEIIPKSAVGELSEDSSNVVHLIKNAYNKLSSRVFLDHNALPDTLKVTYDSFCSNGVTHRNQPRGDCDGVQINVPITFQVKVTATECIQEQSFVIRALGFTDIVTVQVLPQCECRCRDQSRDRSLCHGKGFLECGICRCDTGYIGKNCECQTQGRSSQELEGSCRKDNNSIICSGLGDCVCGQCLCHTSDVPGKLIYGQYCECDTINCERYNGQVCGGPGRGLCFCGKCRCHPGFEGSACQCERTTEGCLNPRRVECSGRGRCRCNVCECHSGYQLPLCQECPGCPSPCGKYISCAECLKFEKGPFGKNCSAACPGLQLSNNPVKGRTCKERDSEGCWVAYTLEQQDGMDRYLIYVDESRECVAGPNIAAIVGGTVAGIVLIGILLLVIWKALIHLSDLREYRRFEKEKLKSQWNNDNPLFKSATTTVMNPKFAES
# procedureText: Assay to determine inhibition of LFA-1 binding to ICAM-1 (immunopurified LFA-1 on plate-bound sICAM-1, ELISA readout)
# conditionParameters: values marked e approximated from incomplete dose-response curve
Note to self: use true (1) only for Kd readings below 200 nM; a reading exactly at 200 nM still gets false (0).

* CN1C(=O)N(c2cc(Cl)cc(Cl)c2)C(=O)C1(C)Cc1ccc(C#N)cc1 (centres unmarked) | true (1)
* C[C@@]1(Cc2ccc(Br)cc2)C(=O)N(c2cc(Cl)cc(Cl)c2)C(=O)N1Cc1cccnc1 | true (1)

INPUT: In plain terms, does CN1C(=O)N(c2cc(Cl)cc(Cl)c2)C(=O)C1(C)Cc1ccc2c(c1)OCO2 (centres unmarked) come in under 200 nM for Kd?
OUTPUT: false (0)

INPUT: In plain terms, does O=C1NC(Cc2ccccc2)C(=O)N1c1cc(Cl)cc(Cl)c1 (centres unmarked) come in under 200 nM for Kd?
OUTPUT: false (0)

INPUT: In plain terms, does CN1C(=O)N(c2cc(Cl)cc(Cl)c2)C(=O)C1(C)Cc1c(F)c(F)c(F)c(F)c1F (centres unmarked) come in under 200 nM for Kd?
OUTPUT: false (0)

====

# systemUnderTest: interaction of ICAM-1 with the Leukointegrin CD18/CD11a (LFA-1) (Homo sapiens, UniProt P05107+P20701)
# Construct: endogenous in cells; sICAM-1: made in house, secreted from transfected CHO DUX cells
# procedureText: Assay to determine inhibition of LFA-1 binding to ICAM-1 (immunopurified LFA-1 on plate-bound sICAM-1, ELISA readout)
In this section, each of the molecules is paired with its reported pKd.
By convention, pKd is the negative base-10 log of a molar concentration.

A selection of reference data follows.
• CN(C)C(=O)c1ccc(CC2(C)C(=O)N(c3cc(Cl)cc(Cl)c3)C(=O)N2C)cc1 (stereo not shown) [Example 258] = 5.78
• CC(C)N1C(=O)N(c2cc(Cl)cc(Cl)c2)C(=O)[C@@]1(C)Cc1ccc(Br)cc1 [Example 273] = 6.72

Recorded result, C[C@@]1(Cc2ccc(Br)cc2)C(=O)N(c2cc(Cl)cc(Cl)c2)C(=O)N1Cc1ccc(C(=O)O)cc1 [Example 228] , pKd: 6.39

Recorded result, C[C@@]1(Cc2ccc(Br)cc2)C(=O)N(c2cc(Cl)cc(Cl)c2)C(=O)N1CCCCC#N [Example 256] , pKd: 6.92

Recorded result, C[C@@]1(Cc2ccc(Br)cc2)C(=O)N(c2cc(Cl)cc(Cl)c2)C(=O)N1C(=O)CO [Example 231] , pKd: 6.57

Recorded result, C[C@@]1(Cc2ccc(Br)cc2)C(=O)N(c2cc(Cl)cc(Cl)c2)C(=O)N1CCO [Example 225] , pKd: 6.20

Recorded result, C[C@H](c1ccccc1)[C@]1(C)C(=O)N(c2cc(Cl)cc(Cl)c2)C(=O)N1C [Example 269] , pKd: 6.54

Recorded result, C[C@@]1(Cc2ccc(Br)cc2)C(=O)N(c2cc(Cl)cc(Cl)c2)C(=O)N1CCCCCC#N [Example 257] , pKd: 7.10

Recorded result, C[C@@]1(Cc2ccc(Br)cc2)C(=O)N(c2cc(Cl)cc(Cl)c2)C(=O)N1C(=O)[C@H]1CCCN1 [Example 235] , pKd: 6.48

Recorded result, C[C@@]1(Cc2ccc(Br)cc2)C(=O)N(c2cc(Cl)cc(Cl)c2)C(=O)N1Cc1cccc(O)c1 [Example 245] , pKd: 6.68

Recorded result, C[C@@]1(Cc2ccc(Br)cc2)C(=O)N(c2cc(Cl)cc(Cl)c2)C(=O)N1CCCN [Example 240] , pKd: 6.96

Recorded result, C[C@@]1(Cc2ccc(Br)cc2)C(=O)N(c2cc(Cl)cc(Cl)c2)C(=O)N1CCCCN [Example 241] , pKd: 7.00

Recorded result, C[C@@H](c1ccccc1)[C@@]1(C)C(=O)N(c2cc(Cl)cc(Cl)c2)C(=O)N1C [Example 270] , pKd: 6.19

Recorded result, C[C@]1(Cc2ccc(Br)cc2)CC(=O)N(c2cc(Cl)cc(Cl)c2)C1=O [Example 277] , pKd: 7.15

Recorded result, C[C@@]1(Cc2ccc(Br)cc2)C(=O)N(c2cc(Cl)cc(Cl)c2)C(=O)N1CCCC[N+](C)(C)C [Example 253] , pKd: 7.30

Recorded result, CN1C(=O)N(c2cc(Cl)cc(Cl)c2)C(=O)C1(CCO)Cc1ccc(Br)cc1 (stereo not shown) [Example 244] , pKd: 5.40

====

# Tested on: cell bound form of LFA-1 (CD18, CD11a) with ICAM-1, SKW3 cells
# procedureText: Inhibition of SKW3 cell binding to ICAM-1 (PMA-stimulated)
# Assay type: cell-based, human
# conditionParameters: values marked c: no inhibition observed up to highest dose; read-out: Assay to Detect SKW3 Cells Binding to ICAM IC50
pIC50: −log10 of the molar value.
valueType: pIC50

• CN1C(=O)N(c2cc(C(F)(F)F)cc(C(F)(F)F)c2)C(=O)C1(C)Cc1ccccc1 (stereo not drawn) [Example 88] = 4.42 to 4.72
• CC1(Cc2c[nH]c3ccccc23)NC(=O)N(c2cc(Cl)cc(Cl)c2)C1=O (stereo not drawn) [Example 23] = 4.30 to 4.60

Recorded result, O=C1NC(Cc2ccc([N+](=O)[O-])cc2)C(=O)N1c1cc(Cl)cc(Cl)c1 (stereo not drawn) [Example 24] , pIC50: < 4.22

====

In this section, each of the compounds is paired with its reported melting point.

- CC1(Cc2ccc(C(F)(F)F)c(F)c2F)NC(=O)N(c2cc(Cl)cc(Cl)c2)C1=O (stereo not shown) [Example 67]: 163 to 164 °C

Shifting focus to the compound that follows.
Recorded result, CC1(Cc2ccccc2OC(F)(F)F)NC(=O)N(c2cc(Cl)cc(Cl)c2)C1=O (stereo not shown) [Example 66] , melting point: 153 to 155 °C

====

# systemUnderTest: interaction of ICAM-1 with the Leukointegrin CD18/CD11a (LFA-1) (Homo sapiens, UniProt P05107+P20701)
# Construct: endogenous in cells; sICAM-1: made in house, secreted from transfected CHO DUX cells
# procedureText: Assay to determine inhibition of LFA-1 binding to ICAM-1 (immunopurified LFA-1 on plate-bound sICAM-1, ELISA readout)
# conditionParameters: values marked e approximated from incomplete dose-response curve
valueType: Kd (nM)
Please reply with the bare figure in nM and do not write the unit itself.

A selection of reference data follows.
• C[C@@]1(Cc2ccc(Br)cc2)C(=O)N(c2cc(Cl)cc(Cl)c2)C(=O)N1Cc1ccccn1 = 150
• CN1C(=O)N(c2cc(Cl)cc(Cl)c2)C(=O)[C@@]1(C)Cc1ccc(-c2cccnc2)cc1 = 40

Shifting focus to the compound that follows.
Recorded result, C[C@]1(Cc2cc(Br)cc(Br)c2)NC(=O)N(c2cc(Cl)cc(Cl)c2)C1=O , Kd: 480

====

Dear all, this message contains Cellular Toxicity Assay MTT LD50 results, target or system SKW3 cells.

A selection of reference data follows.
- CN1C(=O)N(c2cc(Cl)cc(Cl)c2)C(=O)C1(C)Cc1ccc(Br)cc1 (centres unmarked): 250 to 500 µM
- C[C@@H](c1ccccc1)[C@@H]1C(=O)N(c2cc(Cl)cc(Cl)c2)C(=O)N1C: >500 µM
- CC(=O)N1C(=O)N(c2cc(Cl)cc(Cl)c2)C(=O)C1(C)Cc1ccccc1 (centres unmarked): 100 to 200 µM
- CN1C(=O)N(c2cc(Cl)cc(Cl)c2)C(=O)[C@@]1(C)Cc1ccccc1: >500 µM
- C[C@]1(Cc2ccc(Br)cc2)NC(=O)N(c2cc(C(F)(F)F)cc(C(F)(F)F)c2)C1=O: 38 to 46 µM
- C[C@@]1(Cc2ccc(Br)cc2)C(=O)N(c2cc(Cl)cc(Cl)c2)C(=O)N1Cc1cccnc1: 36 µM
- CN1CCC(N2C(=O)N(c3cc(Cl)cc(Cl)c3)C(=O)[C@@]2(C)Cc2ccc(Br)cc2)CC1: <13 µM

Shifting focus to the compound that follows.
Recorded result, CC(=O)CN1C(=O)N(c2cc(Cl)cc(Cl)c2)C(=O)[C@@]1(C)Cc1ccc(Br)cc1 , Cellular Toxicity Assay MTT LD50: 12 µM

// data source = patent USRE38132E1
